molecular target: UniProt:Q14432; test: Phosphodiesterase III (h) inhibition; type: biochemical; conditions: average of two separate occasions; read-out: IC50 (average)
Sequence (Q14432 whole entry): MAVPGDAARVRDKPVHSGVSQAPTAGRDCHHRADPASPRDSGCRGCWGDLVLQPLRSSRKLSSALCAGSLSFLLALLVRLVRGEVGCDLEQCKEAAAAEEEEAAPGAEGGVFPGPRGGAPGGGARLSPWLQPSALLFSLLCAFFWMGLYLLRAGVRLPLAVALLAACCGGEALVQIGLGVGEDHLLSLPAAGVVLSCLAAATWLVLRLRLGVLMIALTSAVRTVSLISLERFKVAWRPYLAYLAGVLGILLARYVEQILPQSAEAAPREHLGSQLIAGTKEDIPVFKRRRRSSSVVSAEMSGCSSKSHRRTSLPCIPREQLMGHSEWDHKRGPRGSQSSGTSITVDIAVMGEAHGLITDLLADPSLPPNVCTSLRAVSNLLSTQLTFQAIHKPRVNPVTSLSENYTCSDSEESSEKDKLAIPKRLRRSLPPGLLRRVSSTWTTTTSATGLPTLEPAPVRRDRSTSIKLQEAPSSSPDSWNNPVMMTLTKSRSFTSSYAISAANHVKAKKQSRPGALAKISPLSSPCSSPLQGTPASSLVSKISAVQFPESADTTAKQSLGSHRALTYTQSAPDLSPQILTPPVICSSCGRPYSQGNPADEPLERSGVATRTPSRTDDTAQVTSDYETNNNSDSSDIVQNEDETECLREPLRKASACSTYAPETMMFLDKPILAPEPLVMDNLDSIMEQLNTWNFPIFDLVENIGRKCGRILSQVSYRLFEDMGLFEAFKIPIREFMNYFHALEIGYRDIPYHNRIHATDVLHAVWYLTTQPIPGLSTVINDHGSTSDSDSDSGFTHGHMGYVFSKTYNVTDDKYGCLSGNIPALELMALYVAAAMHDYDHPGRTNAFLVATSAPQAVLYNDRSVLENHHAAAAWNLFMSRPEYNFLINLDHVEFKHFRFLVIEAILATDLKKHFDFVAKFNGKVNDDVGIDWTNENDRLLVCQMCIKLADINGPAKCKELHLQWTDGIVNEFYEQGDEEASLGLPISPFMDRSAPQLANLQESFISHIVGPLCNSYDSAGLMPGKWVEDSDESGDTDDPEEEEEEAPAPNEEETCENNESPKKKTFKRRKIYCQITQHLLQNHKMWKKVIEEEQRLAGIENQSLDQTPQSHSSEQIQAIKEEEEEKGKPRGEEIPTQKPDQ
pIC50: −log10 of the molar value.

{"compound": "O=CC(=O)NC1=Nc2ccc(Cl)c(Cl)c2CN1 [Compound#1]", "pIC50": 9.05}

* * *

biological target: Phosphodiesterase I; details: read-out: Reference compounds IC50; control value for the reference compound

{"compound": "COCc1nc2c([nH]1)c(=O)n(C)c(=O)n2CC(C)C [8-methoxy-IBMX, reference compound]", "IC50, µM": 2.41}
